Assign Mean relative activity to each entry below.
- System: K562 CRISPRi cells
- method_summary: Constant region variant library pooled growth screen, K562
- Assay type: cell-based, human
- run_parameters: sgRNA constant region variants; activity relative to the original, un-modified constant region cr995
Respond numerically, and do not add a unit to the figure.

Look at this molecule and give its reported Mean relative activity. cr842 (nucleic acid, listed as DNA, chemistry not fully specified) guide: GTTTAAGAGCTAAGCTGGAAACAGCATAGCAAGCTTAAATAAGGCTAGTCCGTTATCAGCTTGAAAAAGCGGCACCGAGTCGGTGCT
0.5544

Look at this molecule and give its reported Mean relative activity. cr058 (nucleic acid, listed as DNA, chemistry not fully specified) guide: GTTGCAGAGCTAAGCTGGAAACAGCATAGCAAGTTTAAATAAGGCTAGTCCGTTATCAACTTGAAAAAGTGGCACCGAGTCGGTGCT
−0.003151
